Test: AUC in Hanover Wistar rat at 3 mg/kg, po
Type: ADME, organism-based
Set-up: dose 3 mg/kg, route oral
Conditions: plasma
propertyMeasured: AUC (ng·h/mL)
Enter your answer as a number in ng·h/mL; do not include the unit.

Exam item: What value of AUC has been recorded for this entry: "C[C@H](CS(C)(=O)=O)Nc1n[nH]c2nc(Oc3ccc(F)cc3F)ncc12"
Marked response: 1220

====

Test: Oral bioavailability in Hanover Wistar rat at 3 mg/kg
Format: ADME, organism-based
Conditions: in vivo
propertyMeasured: bioavailability (%)
Enter your answer as a number in %; do not include the unit.

Exam item: What value of bioavailability has been recorded for this entry: "C[C@H](CS(C)(=O)=O)Nc1n[nH]c2nc(Oc3ccc(F)cc3F)ncc12"
Marked response: 105
